B1: PTPN9 (parent)
chain: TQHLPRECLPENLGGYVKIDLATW

- Variants of: B1
- assay.remarks: protein stability index of a GFP-peptide fusion (GPS, HEK-293T) (PSI 1-6); higher = more stable;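 also: lentivirally expressed fusions sorted by FACS into six bins by GFP to DsRed ratio, PSI derived from sequencing read proportions per bin multiplied by bin number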
- setup.conditions: c terminus: a fixed tail appended
Items are presented alongside their recorded protein stability index.
Reply briefly: the number, and no unit.

*Q* So what's the measured protein stability index for this one? P5N
*A* 2.04
